Target: T1, human BTN2A1 CFP(Nter)-fusion protein expressed on 293F BTN3/BTN2 KO cells (human, UniProt Q7KYR7 29-527)
T1 construct: also called pcDNA3-Zeo-BTN2A1-CFP; not shown: CFP fused at the N-terminus (CFP(Nter)-fusion)
T1 sequence: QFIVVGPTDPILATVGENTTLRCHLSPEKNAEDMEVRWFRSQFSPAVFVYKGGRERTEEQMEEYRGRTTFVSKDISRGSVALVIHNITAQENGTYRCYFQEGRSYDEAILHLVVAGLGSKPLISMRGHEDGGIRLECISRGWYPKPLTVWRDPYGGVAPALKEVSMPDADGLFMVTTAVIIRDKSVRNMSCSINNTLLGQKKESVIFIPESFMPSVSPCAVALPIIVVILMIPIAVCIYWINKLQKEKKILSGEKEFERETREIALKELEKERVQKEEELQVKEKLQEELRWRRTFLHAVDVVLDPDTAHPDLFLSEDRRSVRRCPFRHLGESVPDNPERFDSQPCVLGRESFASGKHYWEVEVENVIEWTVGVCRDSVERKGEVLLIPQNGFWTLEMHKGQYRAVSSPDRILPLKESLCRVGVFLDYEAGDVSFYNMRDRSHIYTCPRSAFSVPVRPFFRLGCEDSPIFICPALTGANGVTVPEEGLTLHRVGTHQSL
Assay: flow cytometry (PE MFI in CFP-positive cells) on 293F BTN3/BTN2 KO cells transfected with BTN2A1-CFP

>  <BINDER>
mAb4 (mouse anti-human BTN2 mAb 7.48) (antibody, V domains shown, Mouse IgG1 purified from hybridoma supernatant; also called CNCM I-5234) VH: EVQLVESGGDLVKPGGSLKLSCAASGFTFSDFYMYWVRRTPEKRLEWVATISDGGSHTYYPDSVKGRFTISRDNAKNNLYLQMRSLKSEDTAMYYCGRDTTIITPYWGQGTLVTVSA VL: QSVVTQESALTTSPGETVTLTCRSSTGAVTTSNYANWVQEKPDHLFTGLIGGTNNRAPGVPARFSGSLIGDKAALTITGAQTEDEAIYFCGLWYSNHWVFGGGTKLTVL

>  <EC50>
0.02 µg/mL

$$$$
>  <BINDER>
mAb3 (mouse anti-human BTN2 mAb 7.28) (antibody, V domains shown, Mouse IgG1 purified from hybridoma supernatant; also called CNCM I-5233) VH: QVHLQQSGAELMKPGASVKISCKATGYTFSSYWIEWVKQRPGHGREWIGEILPGSGSTKYNEKFRGKATFAADTSSNTAYVQLSSLTSEDSAVYYCARLKGYYGGGAMDYWGQGTSVTVSS VL: DVQITQSPSYLAASPGETITINCRASKSISKYLAWYQEKPGKTNELLIYSGSTLQSGIPSRFSGSGSGTDFTLTISSLEPEDFAMYYCQQHNEYPWTFGGGTKLEIK

>  <EC50>
0.02 µg/mL

$$$$
